So I've got a bunch of binders here, and I need their pKd values.
measured-target: T1, Rb^P H673Y (human, UniProt P06400 380-788, H673Y)
T1 construct: also called variant 55
T1 sequence (looked up): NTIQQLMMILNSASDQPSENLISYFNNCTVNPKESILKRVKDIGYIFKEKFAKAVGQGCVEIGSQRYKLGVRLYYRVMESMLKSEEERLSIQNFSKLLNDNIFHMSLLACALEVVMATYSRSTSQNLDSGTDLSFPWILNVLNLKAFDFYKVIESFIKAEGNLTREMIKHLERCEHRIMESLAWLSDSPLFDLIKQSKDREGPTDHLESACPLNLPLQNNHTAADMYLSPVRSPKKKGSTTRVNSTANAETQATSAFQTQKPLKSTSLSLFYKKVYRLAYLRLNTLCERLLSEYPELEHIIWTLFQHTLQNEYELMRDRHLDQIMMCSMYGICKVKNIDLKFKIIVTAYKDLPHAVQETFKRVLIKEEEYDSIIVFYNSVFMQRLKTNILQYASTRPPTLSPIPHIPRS
assay-explanation: fluorescence polarisation; 37 °C, after the 25 °C reading ramped over 7 min to 37 °C and 2 min incubation; unlabeled Rb^P against 1.5 nM TMR-E2F1^TD or 7.5 nM TMR-E7^LxCxE; 25 mM Tris pH 8.0, 200 mM NaCl, 1 mM DTT, 0.1% Tween-20; apparent Kd
particulars: both partners purified
No end group written: not given here. TMR = tetramethyl rhodamine dye
Answers are plain numbers, as −log10 of the molar value.

{TMR}-GEGIRDLFDCDFGDLTPLD (also called E2F^TD; source: synthetic peptide, bought: GenScript) [TMR-E2F1^TD, peptide of the E2F1 transactivation domain] : 7.18

pKd reading for DLYCYEQLN (also: TMR label, position not given here, source: synthetic peptide, bought: GenScript) [TMR-E7^LxCxE, LxCxE peptide of the E7 oncoprotein from HPV] : 7.54
